Biological target: 5-HT1A receptor (Homo sapiens, UniProt P08908)
Construct: purchased Perkin Elmer 6110501400UA
Sequence (P08908 whole entry): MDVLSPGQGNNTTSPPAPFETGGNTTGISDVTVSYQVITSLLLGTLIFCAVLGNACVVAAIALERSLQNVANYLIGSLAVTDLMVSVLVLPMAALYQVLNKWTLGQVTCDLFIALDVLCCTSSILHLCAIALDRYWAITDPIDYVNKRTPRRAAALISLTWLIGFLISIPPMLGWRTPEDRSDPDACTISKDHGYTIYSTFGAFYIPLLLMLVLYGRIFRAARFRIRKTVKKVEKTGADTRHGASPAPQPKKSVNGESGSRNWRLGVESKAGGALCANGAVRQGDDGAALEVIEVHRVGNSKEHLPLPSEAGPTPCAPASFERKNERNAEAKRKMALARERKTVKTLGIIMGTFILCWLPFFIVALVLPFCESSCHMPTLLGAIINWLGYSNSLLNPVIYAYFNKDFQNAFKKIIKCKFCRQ
Test: 5-HT1A receptor functional cellular response (cAMP) assay
Format: cell-based
Settings: CHO-K1/5-HT1A/Gα15 cells stimulated with 4 μM forskolin, reduction of intracellular cAMP; read-out: 5-HT1A, EC50
Items are presented alongside their recorded EC50.
Measured property: EC50

# Molecule, Value measured
data = [
    ("CNC(C)Cc1ccc2c(c1)OCO2 (centres unmarked) [MDMA]", "> 1000 µM"),
    ("COc1cc(CCN)c(OC)cc1Br [2C-B]", "5.95 µM"),
]

---

Items are presented alongside their recorded inhibition at 10 µM.
Biological target: norepinephrine transporter (NET) (Homo sapiens, UniProt P23975)
Construct: host or cells: CHO cells (membrane preparation)
Sequence (P23975 whole entry): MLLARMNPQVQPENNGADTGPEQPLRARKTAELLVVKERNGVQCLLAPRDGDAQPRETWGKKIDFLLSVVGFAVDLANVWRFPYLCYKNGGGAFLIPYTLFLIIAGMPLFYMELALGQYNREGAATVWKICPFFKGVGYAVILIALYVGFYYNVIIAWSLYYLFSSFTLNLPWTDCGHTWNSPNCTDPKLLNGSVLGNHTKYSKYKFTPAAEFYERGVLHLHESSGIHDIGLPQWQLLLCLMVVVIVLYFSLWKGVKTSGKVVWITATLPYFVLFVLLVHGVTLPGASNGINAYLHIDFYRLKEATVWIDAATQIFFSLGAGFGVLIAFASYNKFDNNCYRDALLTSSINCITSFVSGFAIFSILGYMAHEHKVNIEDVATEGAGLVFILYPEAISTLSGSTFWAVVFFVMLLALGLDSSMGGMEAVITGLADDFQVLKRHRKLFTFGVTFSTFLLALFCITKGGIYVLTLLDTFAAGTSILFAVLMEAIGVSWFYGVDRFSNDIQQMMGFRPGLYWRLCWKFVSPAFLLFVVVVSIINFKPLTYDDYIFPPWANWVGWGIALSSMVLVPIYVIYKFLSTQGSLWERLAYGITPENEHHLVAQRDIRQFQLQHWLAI
Assay: Eurofins Cerep competition binding assay at norepinephrine transporter
Conditions: read-out: NET, percent of control-specific binding, 10 μM test ligand, [3H]nisoxetine, recombinant transporter from CHO cells

# Molecule, inhibition at 10 µM / %
rows = [
    ("CC(C(=O)c1ccc2c(c1)OCO2)N1CCCC1 (racemic)", 59),
    ("O=c1n(CCCN2CCN(c3cccc(Cl)c3)CC2)nc2ccccn12", -1),
    ("CC(C(F)c1ccc2c(c1)OCO2)N(C)Cc1ccccc1 (single isomer, unassigned) [D(III) as diast. (vii)]", 50),
    ("COc1ccc2cccc(CCNC(C)=O)c2c1", 1),
    ("CC(C(O)c1ccc2c(c1)OCO2)N(C)Cc1ccccc1 (single isomer, unassigned) [B(III) as diast. (iii)]", 42),
    ("CC(C(=O)c1ccc2c(c1)OCO2)N(C)Cc1ccccc1 (racemic)", 38),
    ("CCCOc1c(OC)cc(CCN)cc1OC", -9),
    ("CN(C)CCCN1c2ccccc2CCc2ccccc21", 99),
    ("COc1ccc2[nH]cc(CCNC(C)=O)c2c1", -2),
]

---

Items are presented alongside their recorded inhibition at 10 µM.
Biological target: dopamine transporter (DAT) (Homo sapiens, UniProt Q01959)
Construct: host or cells: CHO cells (membrane preparation)
Sequence (Q01959 whole entry): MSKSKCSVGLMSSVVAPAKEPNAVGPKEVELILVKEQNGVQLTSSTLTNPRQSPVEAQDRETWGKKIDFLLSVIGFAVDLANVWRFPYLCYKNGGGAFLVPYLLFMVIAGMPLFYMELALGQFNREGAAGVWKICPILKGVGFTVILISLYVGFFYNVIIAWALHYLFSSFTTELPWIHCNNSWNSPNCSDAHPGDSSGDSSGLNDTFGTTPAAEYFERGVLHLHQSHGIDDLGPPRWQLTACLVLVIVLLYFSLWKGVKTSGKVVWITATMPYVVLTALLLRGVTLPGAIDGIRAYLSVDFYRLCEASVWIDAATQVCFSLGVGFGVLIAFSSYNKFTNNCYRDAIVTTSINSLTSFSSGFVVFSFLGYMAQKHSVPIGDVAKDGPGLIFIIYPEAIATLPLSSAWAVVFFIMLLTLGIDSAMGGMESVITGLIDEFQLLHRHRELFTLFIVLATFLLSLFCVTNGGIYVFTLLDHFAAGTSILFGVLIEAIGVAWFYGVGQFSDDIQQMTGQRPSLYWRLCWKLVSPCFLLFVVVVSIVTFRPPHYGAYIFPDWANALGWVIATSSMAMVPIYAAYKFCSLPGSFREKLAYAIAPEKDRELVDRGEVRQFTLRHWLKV
Experiment: Eurofins Cerep competition binding assay at dopamine transporter
Settings: read-out: DAT, percent of control-specific binding, 10 μM test ligand, [3H]BTCP, recombinant transporter from CHO cells
Measured property: inhibition at 10 µM (%)

# Compound, Unit, Value measured
records = [
    ("COc1ccc2cccc(CCNC(C)=O)c2c1", "%", 1),
    ("Cc1ccc(Sc2ccccc2N2CCNCC2)c(C)c1", "%", 90),
    ("O=c1n(CCCN2CCN(c3cccc(Cl)c3)CC2)nc2ccccn12", "%", 24),
    ("CN(C)CCCN1c2ccccc2CCc2ccccc21", "%", 23),
    ("CC(NC(C)(C)C)C(=O)c1cccc(Cl)c1 (stereo not drawn)", "%", 92),
    ("CCCOc1c(OC)cc(CCN)cc1OC", "%", -2),
    ("NCCc1c[nH]c2ccc(O)cc12", "%", 8),
    ("CC(C(=O)c1ccc2c(c1)OCO2)N1CCCC1 (racemic)", "%", 95),
    ("CC(C(F)c1ccc2c(c1)OCO2)N(C)Cc1ccccc1 (single isomer, unassigned) [D(III) as diast. (vii)]", "%", 69),
    ("CC(C(=O)c1ccc2c(c1)OCO2)N(C)Cc1ccccc1 (racemic)", "%", 74),
    ("CC(C(O)c1ccc2c(c1)OCO2)N(C)Cc1ccccc1 (single isomer, unassigned) [B(III) as diast. (iii)]", "%", 75),
    ("N[C@@H](Cc1c[nH]c2ccccc12)C(=O)O", "%", 1),
    ("N#Cc1ccc2[nH]cc(CCCCN3CCN(c4ccc5oc(C(N)=O)cc5c4)CC3)c2c1", "%", 98),
    ("COc1cc(CCN)cc(OC)c1OC", "%", -1),
    ("COc1ccc2[nH]cc(CCNC(C)=O)c2c1", "%", 4),
]

Recorded values, source patent US12195439B1.
